Recorded TGI values for a group of molecules are listed next.
Test system: RXF-631 renal
Test: NCI tumour cell line growth inhibition, 48 h

TGI on RXF-631 renal for COC(=O)C(C(=O)C(=O)Nc1cccc(OC)c1)c1cnc2ccccc2n1 (centres undefined) is > 100 µM

TGI on RXF-631 renal for O=[N+]([O-])c1nccn1CC(O)c1ccc(F)cc1 (centres undefined) is > 100 µM

TGI on RXF-631 renal for O=S(=O)([O-])c1ccc2c(c1)-c1nc-2nc2[n-]c(nc3nc(nc4[n-]c(n1)c1ccc(S(=O)(=O)[O-])cc41)-c1cc(S(=O)(=O)[O-])ccc1-3)c1ccc(S(=O)(=O)[O-])cc21.[Cu+2].[Na+] is > 100 µM

TGI on RXF-631 renal for CC1OC(n2cc(F)c(=O)[nH]c2=O)C=CC1O (centres undefined) is > 100 µM
